# Target Under Test: hFc-hROR2-T245 (recombinant human ROR2 extracellular domain fused to human Fc) (human) (UniProt Q01974)
# Sequence (Q01974 55-394 limits assumed, form in doubt): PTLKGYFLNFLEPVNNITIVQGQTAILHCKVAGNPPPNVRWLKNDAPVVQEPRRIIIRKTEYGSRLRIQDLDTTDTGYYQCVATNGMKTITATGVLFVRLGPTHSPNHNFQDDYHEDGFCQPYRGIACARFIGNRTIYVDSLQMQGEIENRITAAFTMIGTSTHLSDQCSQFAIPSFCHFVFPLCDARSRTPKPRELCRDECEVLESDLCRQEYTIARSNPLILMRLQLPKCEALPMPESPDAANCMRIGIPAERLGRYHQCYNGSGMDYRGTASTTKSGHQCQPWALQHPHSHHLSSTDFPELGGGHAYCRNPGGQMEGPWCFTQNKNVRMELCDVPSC
# Assay Summary: SPR (Biacore X100), hFc-hROR2 captured by anti-human Fc on CM5, Fab as analyte, 1:1 Langmuir model
Property Measured: kon

Binder	Property Measured	Obs Value
chimeric rabbit/human Fab ERR2-316 (Fab, V domains shown) VH: QKQLVESGGRLVTPGGSLTLTCTVSGFSLSKYGVSWVRQAPGSGLEYIGTIGGSGTSYYASWAKSRSTITRNTNLNTVTLKMTSLTAADTATYFCARYFGWNTGFDIWGPGTLVTISS VL: DPVMTQTPSSVSEPVGGTVTIKCQASQSISNALAWYQQKPGQPPKRLIYKASTPASGVPSRFKGSRSGTEYTLTISGVQREDAATYYCLGFSVVSNDGWAFGAGTNVEIK	kon	3.34e+06 M⁻¹ s⁻¹
chimeric rabbit/human Fab ERR2-302 (Fab, V domains shown) VH: QKQLVESGGGLVKPGGSLTLTCTVSGFSLSSYAIGWVRQAPGNGLEWIGIINSYGSTYYASWAKSRSTITRNTNLNTVTLKMTSLTAADTATYFCARSPYGYVSAWGYHRLDLWGQGTLVTISS VL: SYELTQLPSVSVSLGQTARITCGGASIGSKVVHWYQQKPGLAPGLLIYDDDERPSGVPDRFSGSNSGDTATLTISGAQAGDEAEYYCQLWDGSDVVFGGGTQLTVTG	kon	104000 M⁻¹ s⁻¹
chimeric rabbit/human Fab XBR2-433 (Fab, V domains shown) VH: QSVKESEGGLFKPTDTLTLTCTVSGFSLSTYGVSWVRQAPGNGLEWIGAIGSSGSANYASWAKDRSTITRNTNLNTVTLKMTSLTAADTATYFCARDGYYSSGWGPYFNIWGPGTLVTISS VL: SFVLTQPASVQVNLGQTVSLTCTADTLSRSYASWYQQKPGQAPVLLIYRDTSRPSGVPDRFSGSSSGNTATLTISGAQAGDEADYYCATSGGSGSNPQYVFGGGTQLTVTG	kon	47300 M⁻¹ s⁻¹

All values here come from patent US20190031754A1.
